test: PhoP-dependent GFP reporter repression – Salmonella Typhimurium, primary screen (AID 1863);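 note: 0% = low Mg2+ inducing control and 100% = high Mg2+ repressing control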
experimental setup: S. Typhimurium PhoP-regulated promoter GFP reporter, 4 h; at 50 µM; active compounds read high
In all, about 300,000 compounds went through this assay and about 480 (0.16%) were called active. The list is a sample of the results. Measured potencies and affinities stand elsewhere.
Give measured inhibition for each item. Keep answers brief.
Report only the number, with the unit % understood.

# lookup: inhibition of `O=C(N/N=C/c1cc(Br)c(O)c(Br)c1O)c1cccnc1`
-3.91

# repeat for `Cc1ccc(C(=O)Nc2ccccc2Sc2ccccc2)cc1`
-6.94

Query `O=C(N/N=C/c1cc(Br)c(O)c(Br)c1)c1cccnc1` next
-1.14

And for `CCn1cc(C(=O)NCc2cccc(F)c2)c(=O)c2cc(F)c(N3CCN(C(=O)c4ccco4)CC3)cc21` ?
12.3

Then `O=C(N/N=C/c1cc(Br)ccc1O)c1ccncc1` ?
3.11

Could you do the same for `O=C(N/N=C/c1ccc(Cl)cc1Cl)c1ccncc1` , please?
3.86

Try the compound `CCn1cc(C(=O)O)c(=O)c2cnc(N3CCN(C(=S)NC(=O)c4ccccc4)CC3)nc21`
18.2

# iterate: `NC1=NC[C@H](Cc2ccccc2)N1CC1CCCCC1`
-1.5

Cool, now CCCCCCC(C)n1[nH]c(=O)cc1N (stereo unspecified)
0.2

Field entry: `CCn1cc(C(=O)N/N=C(/C)c2ccc(F)cc2)c(=O)c2cc(F)c(N3CCCC3)cc21`
-8.17

Same thing, different compound: `O=C(N/N=C/c1ccccc1O)c1ccncc1`
-5.2
